Reference source for all entries: PubChem BioAssay (NCI)

Listed below: TGI values for each entry.
# Test system: UO-31 renal
# Run Description: NCI tumour cell line growth inhibition, 48 h
Please give a number only; it is taken to be in µM.

Find the measured TGI of Fc1ccc(-c2ncn(C3CCNCC3)c2-c2ccnc(Oc3ccc(Cl)cc3)n2)cc1 and report it.
12.2

Find the measured TGI of O=C(O)C(Cc1ccccc1)N1C(=O)/C(=C/C(Cl)=C/c2ccc([N+](=O)[O-])cc2)SC1=S (stereo not given) and report it.
3.1

* * *

# Test system: MDA-MB-435
Pick from active, inactive when you respond.

# count of solved cases: 2
CSC(=S)NCc1cn(C)c2ccccc12
inactive
COC(=O)N[C@@H](C)CNc1nccc(-c2cn(C(C)C)nc2-c2cc(Cl)cc(NS(C)(=O)=O)c2F)n1
active

Recorded call for COc1cccc(C2C(C#N)=C(N)Oc3cc(OCCCCCC[P+](c4ccccc4)(c4ccccc4)c4ccccc4)ccc32)c1 (stereo not drawn) ?
active

* * *

# Tested on: MDA-MB-435
# Run Description: NCI tumour cell line growth inhibition, 48 h; in the data active means GI50 below about 0.43 µM; inactive means the rest
Pick from active, inactive when you respond.

C[C@]12CCC3c4ccc(O)cc4CCC3C1CC[C@@H]2NC(=O)/C=C/c1ccc(O)c(O)c1 (stereo not given in full)
inactive
CCCCC[C@H]1C/C=C2/C(=O)C=C[C@@H]2C/C=C\CCCC(=O)O1
active
O=C(OCC1=CC(=O)c2ccccc2C1=O)c1ccccc1
inactive
C=C(CN1CCN(c2ccccn2)CC1)c1ccc(C(=O)Nc2ccccc2N)cc1
inactive
CSCc1ncc(-c2ccc(C(F)(F)F)cc2)c(NC2CCCCCC2)n1
inactive
COc1ccc(N=c2nc3sc4cc(Cl)ccc4n3c(N)c2C#N)cc1
inactive

Recorded call for S=C(Nc1ccc(-c2nc3ccccc3s2)cc1)Nc1ccc(-c2nc3ccccc3s2)cc1 ?
inactive

Recorded call for COc1cc(C=NCC(=O)CSC(c2ccccc2)c2ccccc2)ccc1O ?
inactive

Recorded call for CN(Cc1cnc2nc(N)nc(N)c2n1)c1c(Cl)cc(C(=O)NC(CCC(=O)O)C(=O)O)cc1Cl (stereo not given) ?
active

Recorded call for Cn1cc(-c2csc(-c3ccc(Cl)cc3)n2)c2cccnc21 ?
inactive

* * *

# System: U251 CNS
# Run Description: NCI tumour cell line growth inhibition, 48 h
Readout Kind: TGI

CCOC(=O)c1cnc2n(c1=O)[C@H]1CCCC[C@@H]1N2
> 100 µM
CNCC(SC)c1ccc(O)c(O)c1 (stereo unspecified)
> 100 µM
COC(=O)c1ccc(C)cc1C1CN=NC12Cc1cccc(C)c1C2=O (stereo unspecified)
> 100 µM
NC(=S)c1cccc(C2Nc3ccccc3O2)c1 (stereo unspecified)
> 100 µM

Find the measured TGI of COc1ccc(-c2c(/C=N/OCC(=O)O)c3sc4ccccc4n3c2/C=N/OCC(=O)O)cc1 and report it.
> 50 µM

Find the measured TGI of CNC(=O)NCCCCC(NC(C)=O)C(=O)NCc1ccccc1 (stereo unspecified) and report it.
> 100 µM

* * *

# System: SK-OV-3 ovarian
# Run Description: NCI tumour cell line growth inhibition, 48 h
Readout Kind: log10(TGI) (log10 of the value in µM)
// units: µM (pre-log); metric: TGI; scale: log10

Record excerpt, results attached:
COc1ccc(C2=NNC(c3sc(Cl)nc3Cl)C2)cc1 (centres undefined)
1.71
N#C/C(=C/C=C/c1cccc(Cl)c1)S(=O)c1ccccc1 (centres undefined)
1.01
C=C(CN1CCN(c2ccccn2)CC1)c1ccc(C(=O)Nc2ccccc2N)cc1
0.65
O=C(NNC(=O)c1ccc(Cl)cc1NC(=O)C12CC3CC(CC(C3)C1)C2)c1ccc(Cl)cc1
1.78

Consider the record given below.
State, for SK-OV-3 ovarian, measured log10(TGI) of the molecule listed here: COc1c2c(c(O)c3c4c(c(C)cc13)C1OC3(C(OC)OC5CC(C)(O)C(OC6CC(C)(O)C(O)C(C)O6)C(C)O5)OC1C(OC)(O4)C31CO1)C(=O)C(O)CC2OC1CC(C)(O)C(OC(C)=O)C(C)O1 (centres undefined)
-0.15

* * *

# Tested on: EKVX NSCLC
# Run Description: NCI tumour cell line growth inhibition, 48 h
Readout Kind: TGI

Record excerpt, results attached:
Cc1cccc(NC(=S)Nc2cccc(Cl)c2)n1
> 100 µM
Cc1cc(C)nc(NC(=O)COc2ccc(Cl)cc2)c1
> 100 µM
O=S1(=O)N=C(SCc2c[nH]c3ccccc23)N(c2ccccc2)c2ccncc21
> 100 µM

Consider the record given below.
State, for EKVX NSCLC, measured TGI of the compound listed here: NCCCNCCSP(=O)(O)O
> 750 µM

* * *

# Test system: SK-OV-3 ovarian
# Run Description: NCI tumour cell line growth inhibition, 48 h
Readout Kind: TGI (µM)
Please give a number only; it is taken to be in µM.

State, for SK-OV-3 ovarian, measured TGI of the compound listed here: Nc1ccc(C(=O)N/C(=C\c2ccc3c(c2)OCO3)c2nc3ccccc3s2)cc1
36.2

* * *

# Test system: UACC-62 melanoma
# Run Description: NCI tumour cell line growth inhibition, 48 h; in the data active = GI50 below about 0.43 µM; inactive = the rest
Pick from label 1 for active, label 0 for inactive when you respond.

COc1ccc(C(=O)Cn2c(C(=O)c3ccc(Cl)cc3)nc(-c3ccccc3)c2-c2ccccc2)cc1
label 0
O=C(NCc1cn(Cc2cccc(Oc3ccccc3)c2)nn1)c1cccnc1NCc1ccc(Cl)cc1
label 0
N#C/C(=C/C=C/c1cccc(Cl)c1)S(=O)c1ccccc1 (stereo not given)
label 0
COc1ccc(/C=C(\C#N)c2cc(OC)c(OC)c(OC)c2)cc1
label 1

Recorded call for COc1cc(N)c(Cl)cc1C(=O)N[C@@H]1CCN(CCCOc2ccc(F)cc2)C[C@@H]1OC ?
label 0

Recorded call for CN(C)CCN=c1nc2c(c(N)n1-c1ccccc1)c(=S)n(-c1ccccc1)c(=S)n2-c1ccccc1 ?
label 0

Recorded call for CSCc1ncc(-c2ccc(C(F)(F)F)cc2)c(NC2CCCCCC2)n1 ?
label 0

Recorded call for O=C(OCC1=CC(=O)c2ccccc2C1=O)c1ccccc1 ?
label 0

Recorded call for COc1ccc2c(c1)[n+](=O)c(/C=C/C(=O)c1cc(OC)c(OC)c(OC)c1)c(C)n2[O-] ?
label 0

Recorded call for CC(=O)c1nc(-c2ccc(C[C@@H](CNC(=O)CN(C)C)NC(=O)c3ccc(OC(C)C)c(Cl)c3)cc2)cn1C ?
label 1

* * *

# Tested on: ACHN renal
# Run Description: NCI tumour cell line growth inhibition, 48 h
Readout Kind: GI50

COc1c(OC2OC(C)C(O)C(O)C2O)c(OC)c2oc(-c3ccc(O)cc3)cc(=O)c2c1O (centres undefined)
30.7 µM
COC(=O)c1c(C(=O)O)c(-c2ccccc2)c(-c2ccccc2)c(-c2ccccc2)c1-c1ccccc1
> 100 µM
O=C(O)C(Cc1ccccc1)N1C(=O)/C(=C/C(Cl)=C/c2ccc([N+](=O)[O-])cc2)SC1=S (centres undefined)
1.8 µM
Cc1cc(C)c(-c2c(O)c(Br)c(-c3c(C)cc(C)c(Br)c3C)c(O)c2Br)c(C)c1Br
3.14 µM
COc1ccc(CN2c3ccccc3Sc3ccccc32)cc1O
1.56 µM

State, for ACHN renal, measured GI50 of the compound listed here: COc1ccc2c(c1)[n+](=O)c(/C=C/C(=O)c1cc(OC)c(OC)c(OC)c1)c(C)n2[O-]
5.66 µM

State, for ACHN renal, measured GI50 of the compound listed here: CC(C)(O)c1cc(Nc2cc(Oc3cn(C4CC4)nc3C3CCOCC3)ccn2)ccn1
> 100 µM

State, for ACHN renal, measured GI50 of the compound listed here: COc1cc(C=NCC(=O)CSC(c2ccccc2)c2ccccc2)ccc1O
12.5 µM

State, for ACHN renal, measured GI50 of the compound listed here: CN(Cc1cnc2nc(N)nc(N)c2n1)c1c(Cl)cc(C(=O)NC(CCC(=O)O)C(=O)O)cc1Cl (centres undefined)
< 0.01 µM

* * *

# Test system: U251 CNS
Pick from active, inactive when you respond.

# count of solved cases: 4
N.N.N.N.O=S([O-])[O-].[Co+3].[N-]=[N+]=[N-]
inactive
CCCCC[C@H]1C/C=C2/C(=O)C=C[C@@H]2C/C=C\CCCC(=O)O1
active
COc1cc(C=NCC(=O)CSC(c2ccccc2)c2ccccc2)ccc1O
inactive
CC(C)(O)c1cc(Nc2cc(Oc3cn(C4CC4)nc3C3CCOCC3)ccn2)ccn1
inactive

Recorded call for CC(C)(C)OC(=O)NCCCCCCCCCCCCn1c2c(c3ccccc3c1=O)C(=O)c1ccccc1-2 ?
inactive

Recorded call for Cc1nc(C(=O)OCc2ccccc2)cc(OCc2ccccc2)c1C ?
inactive

Recorded call for C/C(=N\NC(=S)N1CCCC1)c1ccccn1 ?
active

Recorded call for O=C(O)C(Cc1ccccc1)N1C(=O)/C(=C/C(Cl)=C/c2ccc([N+](=O)[O-])cc2)SC1=S (configuration not stated) ?
inactive

Recorded call for CC(C)=CC(=O)OC1C2C(C)=CC(=O)C(O)C2(C)C2C3(O)OCC24C(CC(=O)OC14)C(C)C3O (configuration not stated) ?
active

Recorded call for Fc1ccc(-c2ncn(C3CCNCC3)c2-c2ccnc(Oc3ccc(Cl)cc3)n2)cc1 ?
inactive

Recorded call for CCN(CC)CC[n+]1ccc2c(C)c3[nH]c4ccccc4c3c(C)c2c1 ?
active

Recorded call for COc1ccc2c(CN3CCCC[C@H]3O)cc3cc4c(cc3c2c1)OCO4 ?
active

Recorded call for CSC(=S)NCc1cn(C)c2ccccc12 ?
inactive
